# MEASURED ON: TAAR13c (Danio rerio, UniProt Q5QNP2, W296Y)
# TEST NAME: Fluo-4 Ca2+ influx through cAMP-gated CNG channel in stable HEK293 line
# Assay type: cell-based
# CONDITION DESCRIPTION: read-out: EC50 (μM, mean±SEM) / cad
# Text: Fluo-4 Ca2+ influx through cAMP-gated CNG channel in stable HEK293 line on TAAR13c
QUANTITY NAME: EC50 (µM)
Give the number; µM is assumed, so skip it.

Request: Report EC50 for NCCCCCN [cadaverine]
Result: 28

* * *

# MEASURED ON: TAAR13c (Danio rerio)
# TEST NAME: Fluo-4 Ca2+ influx through cAMP-gated CNG channel in stable HEK293 line
# Format: cell-based
# CONDITION DESCRIPTION: read-out: EC50 (μM, mean±SEM) / cad
QUANTITY NAME: EC50 (µM)
Give the number; µM is assumed, so skip it.

Request: Report EC50 for NCCCCCN
Result: 15.2

* * *

# MEASURED ON: TAAR13c (Danio rerio, UniProt Q5QNP2, W296G)
# TEST NAME: Fluo-4 Ca2+ influx through cAMP-gated CNG channel in stable HEK293 line
# Type: cell-based
# CONDITION DESCRIPTION: read-out: EC50 (μM, mean±SEM) / cad
QUANTITY NAME: EC50 (µM)
Give the number; µM is assumed, so skip it.

Request: Report EC50 for NCCCCCN [cadaverine]
Result: 55

* * *

# MEASURED ON: TAAR13c (Danio rerio)
# TEST NAME: Fluo-4 Ca2+ influx through cAMP-gated CNG channel in stable HEK293 line
# Format: cell-based
# CONDITION DESCRIPTION: read-out: EC50 (μM, mean±SEM) / put
QUANTITY NAME: EC50

Request: Supply EC50 measured with TAAR13c (Danio rerio) for NCCCCN .
Result: > 1000 µM

* * *

# MEASURED ON: TAAR13c (Danio rerio, UniProt Q5QNP2, D279N)
# Sequence (Q5QNP2 1-341 D279N): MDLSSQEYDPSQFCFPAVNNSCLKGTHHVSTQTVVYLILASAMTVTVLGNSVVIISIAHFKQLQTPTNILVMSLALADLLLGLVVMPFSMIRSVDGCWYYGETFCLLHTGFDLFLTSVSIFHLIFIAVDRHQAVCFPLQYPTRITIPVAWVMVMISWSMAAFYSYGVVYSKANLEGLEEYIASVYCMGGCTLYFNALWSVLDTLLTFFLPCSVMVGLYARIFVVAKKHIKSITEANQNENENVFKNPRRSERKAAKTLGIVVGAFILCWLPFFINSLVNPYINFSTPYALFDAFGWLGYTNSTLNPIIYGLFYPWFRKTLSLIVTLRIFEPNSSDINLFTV
# TEST NAME: Fluo-4 Ca2+ influx through cAMP-gated CNG channel in stable HEK293 line
# Assay type: cell-based
# CONDITION DESCRIPTION: read-out: EC50 (μM, mean±SEM) / cad
QUANTITY NAME: EC50 (µM)
Give the number; µM is assumed, so skip it.

Request: Report EC50 for NCCCCCN [cadaverine]
Result: 1.1

* * *

# MEASURED ON: TAAR13c (Danio rerio, UniProt Q5QNP2, W296Y)
# Sequence (Q5QNP2 1-341 W296Y): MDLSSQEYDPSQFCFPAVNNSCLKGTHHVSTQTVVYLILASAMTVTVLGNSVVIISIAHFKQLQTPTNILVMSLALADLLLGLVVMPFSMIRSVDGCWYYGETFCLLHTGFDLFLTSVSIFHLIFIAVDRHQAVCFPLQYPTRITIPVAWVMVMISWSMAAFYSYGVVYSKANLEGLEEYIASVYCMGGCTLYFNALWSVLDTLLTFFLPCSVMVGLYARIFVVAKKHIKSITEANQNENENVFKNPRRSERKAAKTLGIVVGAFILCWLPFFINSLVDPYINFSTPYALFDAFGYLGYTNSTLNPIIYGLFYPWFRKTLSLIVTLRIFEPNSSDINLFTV
# TEST NAME: Fluo-4 Ca2+ influx through cAMP-gated CNG channel in stable HEK293 line
# Type: cell-based
# CONDITION DESCRIPTION: read-out: EC50 (μM, mean±SEM) / put
QUANTITY NAME: EC50

Request: Report EC50 for NCCCCN
Result: > 1000 µM
